- system: KRas G12C (Homo sapiens, UniProt P01116, G12C)
- Sequence (P01116 1-188 isoform P01116-2 G12C): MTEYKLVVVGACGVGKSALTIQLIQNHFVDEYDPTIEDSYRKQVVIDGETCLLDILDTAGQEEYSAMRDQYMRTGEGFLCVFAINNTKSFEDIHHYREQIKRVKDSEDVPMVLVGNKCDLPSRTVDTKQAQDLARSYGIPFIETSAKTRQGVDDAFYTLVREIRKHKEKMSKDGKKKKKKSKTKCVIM
- assayProcedure: Cellular inhibition of KRas G12C measured by Phospho-ERK in NCI-H358 cells
- Assay type: cell-based
- setupConditions: pERK(Thr202/Tyr204) normalized with GAPDH, NCI-H358 cells, 3 hours; read-out: IC50
pIC50: −log10 of the molar value.
We begin with a simple list: items and their reported pIC50.
experimentalEndpoint: pIC50

compound	experimentalEndpoint	obsValue
C=CC(=O)N1CCN(c2nc(O[C@H](C)CN(C)C)nc3c2CCN(c2c(C)cccc2O)C3)CC1	pIC50	< 6.00
C=CC(=O)N1CCN(c2nc(OC[C@@H]3CCCN3C)nc3c2CCN(c2c(C(C)C)ccc4[nH]ncc24)C3)CC1	pIC50	< 6.00
C=CC(=O)N1CCN(c2nc(OC[C@@H]3CCCN3C)nc3c2CCN(c2ccccc2CC(F)(F)F)C3)CC1CC#N (stereo partly shown) [Example 374]	pIC50	< 6.00
C=C(F)C(=O)N1CCN(c2nc(OC[C@@H]3CCCN3Cc3ccccc3)nc3c2CCN(c2cccc4cccc(C)c24)C3)C[C@@H]1CC#N	pIC50	6.00 to 10.00

----------
- system: KRas G12C (Homo sapiens, UniProt P01116, G12C)
- assayProcedure: Cellular inhibition of KRas G12C measured by Phospho-ERK in NCI-H358 cells
- Format: cell-based
- setupConditions: pERK(Thr202/Tyr204) normalized with GAPDH, NCI-H358 cells, 3 hours; read-out: IC50
pIC50: −log10 of the molar value.

smi	pIC50
C=C(F)C(=O)N1CCN(c2nc(OC[C@@H]3CCCN3C)nc3c2CCN(c2cccc4ccnc(Cl)c24)C3)C[C@@H]1CC#N	6.00 to 10.00
CN(C)C/C=C/C(=O)N1CCN(c2nc(OC[C@@H]3CCCN3C)nc3c2CCN(c2cccc(Cl)c2C(F)(F)F)C3)C[C@@H]1CC#N	6.00 to 10.00
C=CC(=O)N1CCN(c2nc(OC[C@@H]3CCCN3C)nc3c2CCN(c2cccc(Cl)c2CC)C3)C[C@@H]1CC#N	6.00 to 10.00
C=CC(=O)N1CCN(c2nc(OC[C@@H]3CCCN3C)nc3c2CCN(c2c(C)ccc4[nH]ncc24)C3)CC1	6.00 to 10.00
C=CC(=O)N1CCN(c2nc(OC[C@@H]3C[C@@H](F)CN3C)nc3c2CCN(c2cncc(F)c2C(F)(F)F)C3)C[C@@H]1CC#N	6.00 to 10.00
C=CC(=O)N1CCN(c2nc(N3CCN(CCO)CC3)nc3c2CCN(c2cc(O)cc4ccccc24)C3)CC1	< 6.00
C=C(F)C(=O)N1CCN(c2nc(OC[C@@H]3CCC(=O)N3C)nc3c2CCN(c2cccc4cccc(Cl)c24)C3)C[C@@H]1CC#N	< 6.00

----------
We begin with a simple list: items and their reported pIC50.
- system: KRas G12C (Homo sapiens, UniProt P01116, G12C)
- assayProcedure: Cellular inhibition of KRas G12C measured by Phospho-ERK in NCI-H358 cells
- Format: cell-based
- setupConditions: pERK(Thr202/Tyr204) normalized with GAPDH, NCI-H358 cells, 3 hours; read-out: IC50
pIC50: −log10 of the molar value.

compound	pIC50
C=CC(=O)N1CCN(c2nc(OC[C@H]3C[C@@H](O)CN3C)nc3c2CCN(c2cccc(F)c2C(F)(F)F)C3)CC1CC#N (stereo partly shown)	6.00 to 10.00
C=C(F)C(=O)N1CCN(c2nc(OC[C@@H]3CCCN3)nc3c2CCN(c2cccc4cccc(Cl)c24)C3)C[C@@H]1CC#N	6.00 to 10.00
C=CC(=O)N1CCN(c2nc(OCCN(C)C)nc3c2CCN(c2cc(O)cc4ccccc24)C3)C(CO)C1 (stereo not shown)	< 6.00
C=CC(=O)N1CCN(c2nc(OCCN3CCC(F)C3)nc3c2CCN(c2cc(O)cc4ccccc24)C3)CC1 (stereo not shown)	< 6.00
